- Tested on: Osteoclast
- MEASUREMENT_PROTOCOL: In vitro bone resorption in isolated rabbit osteoclasts
- Type: functional, cell-based
- CONDITION_SET: Oryctolagus cuniculus
PARAMETER_MEASURED: IC50 (nM)

Solved cases below.
[
  {
    "COMPOUND": "N#CCNC(=O)C1(NC(=O)c2ccc(-c3csc(N4CCOCC4)n3)cc2)CCCCC1",
    "VALUE_UNITS": "nM",
    "RECORDED_NUMBER": 35
  },
  {
    "COMPOUND": "N#CCNC(=O)C1(NC(=O)c2ccc(-c3ccc(-c4ccno4)cc3)cc2)CCCCC1",
    "VALUE_UNITS": "nM",
    "RECORDED_NUMBER": 37
  },
  {
    "COMPOUND": "CN1CCN(N(C)c2nc(-c3ccc(C(=O)NC4(C(=O)NCC#N)CCCCC4)cc3)cs2)CC1",
    "VALUE_UNITS": "nM",
    "RECORDED_NUMBER": 11
  },
  {
    "COMPOUND": "N#CCNC(=O)C1(NC(=O)c2ccc(-c3ccc(OC4CCN(CCO)CC4)cc3)cc2)CCCCC1",
    "VALUE_UNITS": "nM",
    "RECORDED_NUMBER": 59
  },
  {
    "COMPOUND": "N#CCNC(=O)C1(NC(=O)c2ccc(-c3csc(CN4CCOCC4)n3)cc2)CCCCC1",
    "VALUE_UNITS": "nM",
    "RECORDED_NUMBER": 210
  }
]

I = N#CCNC(=O)C1(NC(=O)c2ccc(-c3ccc(S(=O)(=O)N4CCN(CC(F)(F)F)CC4)cc3)cc2)CCCCC1
II = N#CCNC(=O)C1(NC(=O)c2ccc(-c3ccc(C4(F)CCNCC4)cc3)cc2)CCCCC1
Between I and II , which one shows the smaller IC50 number? Give the chosen item's label as your response.
II

P = N#CCNC(=O)C1(NC(=O)c2ccc(-c3csc(N4CC[C@@H](N)C4)n3)cc2)CCCCC1
Q = CN1CCC(Oc2ccc(-c3ccc(C(=O)NC4(C(=O)NCC#N)CCCCC4)cc3)cc2)CC1
R = N#CCNC(=O)C1(NC(=O)c2ccc(-c3csc(N4CCC(N5CCCCC5)CC4)n3)cc2)CCCCC1
Please rank these compounds by IC50 in descending order. Give me the labels in the order the question wants.
P, Q, R

P = CC(C)(C)NC1CCN(c2ccc(-c3ccc(C(=O)NC4(C(=O)NCC#N)CCCCC4)cc3)cc2)CC1
Q = CN1CCC[C@H]1COc1ccc(-c2ccc(C(=O)NC3(C(=O)NCC#N)CCCCC3)cc2)cc1
Between P and Q , which one shows the smaller IC50 number? Give the chosen item's label as your response.
Q

A = N#CCNC(=O)C1(NC(=O)c2ccc(-c3csc(OC4CCNCC4)n3)cc2)CCCCC1
B = CC(C)NC1CCN(c2nc(-c3ccc(C(=O)NC4(C(=O)NCC#N)CCCCC4)cc3)cs2)CC1
Compare the recorded IC50 of A and B ; state which is larger. Give the chosen item's label as your response.
A
(A: 43 nM, B: 19 nM)

a = CN1CCC(c2nc(-c3ccc(C(=O)NC4(C(=O)NCC#N)CCCCC4)cc3)cs2)CC1
b = COCCN1CCN(c2nc(-c3ccc(C(=O)NC4(C(=O)NCC#N)CCCCC4)cc3)cs2)CC1
c = CN(C)C1CCN(c2nc(-c3ccc(C(=O)NC4(C(=O)NCC#N)CCCCC4)cc3)cs2)C1 (stereo not drawn)
Please rank these compounds by IC50 in descending order. Give me the labels in the order the question wants.
c, a, b
(c: 110 nM, a: 61 nM, b: 4 nM)

* * *

Property: MRT; scope: individual compounds
- Tested on: Rattus norvegicus
- MEASUREMENT_PROTOCOL: Mean residence time in rat administered with 0.5 mg/kg, iv
- Type: functional, organism-based
- Parameters: dose 0.5 mg/kg
Your answer is read as h, so omit the unit and give the number.

Solved cases below.
[
  {
    "MOL_SMILES": "CN1CCC(c2nc(-c3ccc(C(=O)NC4(C(=O)NCC#N)CCCCC4)cc3)cs2)CC1",
    "PARAMETER_MEASURED": "MRT",
    "RECORDED_NUMBER": 0.233
  },
  {
    "MOL_SMILES": "N#CCNC(=O)C1(NC(=O)c2ccc(-c3csc(CN4CCOCC4)n3)cc2)CCCCC1",
    "PARAMETER_MEASURED": "MRT",
    "RECORDED_NUMBER": 0.26
  },
  {
    "MOL_SMILES": "N#CCNC(=O)C1(NC(=O)c2ccc(-c3ccc(OC4CCN(CCO)CC4)cc3)cc2)CCCCC1",
    "PARAMETER_MEASURED": "MRT",
    "RECORDED_NUMBER": 1.83
  },
  {
    "MOL_SMILES": "CC(C)N(C)C1CCN(c2nc(-c3ccc(C(=O)NC4(C(=O)NCC#N)CCCCC4)cc3)cs2)CC1",
    "PARAMETER_MEASURED": "MRT",
    "RECORDED_NUMBER": 2.02
  },
  {
    "MOL_SMILES": "N#CCNC(=O)C1(NC(=O)c2ccc(-c3ccc(C4(F)CCNCC4)cc3)cc2)CCCCC1",
    "PARAMETER_MEASURED": "MRT",
    "RECORDED_NUMBER": 0.8
  },
  {
    "MOL_SMILES": "COCCN1CCC(Oc2ccc(-c3ccc(C(=O)NC4(C(=O)NCC#N)CCCCC4)cc3)cc2)CC1",
    "PARAMETER_MEASURED": "MRT",
    "RECORDED_NUMBER": 1.95
  },
  {
    "MOL_SMILES": "CC(C)NC1CCN(c2nc(-c3ccc(C(=O)NC4(C(=O)NCC#N)CCCCC4)cc3)cs2)CC1",
    "PARAMETER_MEASURED": "MRT",
    "RECORDED_NUMBER": 2.42
  },
  {
    "MOL_SMILES": "N#CCNC(=O)C1(NC(=O)c2ccc(-c3ccc(N4CCNCC4)cc3)cc2)CCCCC1",
    "PARAMETER_MEASURED": "MRT",
    "RECORDED_NUMBER": 1.73
  }
]

Attention now shifts to the item below.
Quick one: MRT for "CN1CCN(Cc2nc(-c3ccc(C(=O)NC4(C(=O)NCC#N)CCCCC4)cc3)cs2)CC1" ?
1.25

* * *

- EXPERIMENTAL_TARGET: UniProt P07858
- MEASUREMENT_PROTOCOL: Inhibitory constant against human cathepsin B using Boc-Leu-Lys-Arg-AMC substrate
- CONDITION_SET: read-out: Ki
PARAMETER_MEASURED: Ki (µM)
Your answer is read as µM, so omit the unit and give the number.

Please provide the recorded Ki for "CC(C)(C)NC1CCN(c2ccc(-c3ccc(C(=O)NC4(C(=O)NCC#N)CCCCC4)cc3)cc2)CC1" , tested on UniProt P07858.
76

* * *

- MEASUREMENT_PROTOCOL: Maximum concentration in rat administered with 10 mg/kg, po
- Assay type: ADME, organism-based
- Set-up: dose 10 mg/kg, route oral
- CONDITION_SET: in vivo
PARAMETER_MEASURED: Cmax (nM)

[
  {
    "MOL_SMILES": "N#CCNC(=O)C1(NC(=O)c2ccc(-c3csc(N4CCC(N5CCOCC5)CC4)n3)cc2)CCCCC1",
    "PARAMETER_MEASURED": "Cmax",
    "VALUE_UNITS": "nM",
    "RECORDED_NUMBER": 1700
  }
]

1 = CC(C)(C)N1CCN(c2nc(-c3ccc(C(=O)NC4(C(=O)NCC#N)CCCCC4)cc3)cs2)CC1
2 = N#CCNC(=O)C1(NC(=O)c2ccc(-c3csc(N4CCC(N5CCCCC5)CC4)n3)cc2)CCCCC1
Between 1 and 2 , which one shows the smaller Cmax number? Give the chosen item's label as your response.
2

* * *

- EXPERIMENTAL_TARGET: Procathepsin L (Homo sapiens)
- Sequence (P07711 whole entry): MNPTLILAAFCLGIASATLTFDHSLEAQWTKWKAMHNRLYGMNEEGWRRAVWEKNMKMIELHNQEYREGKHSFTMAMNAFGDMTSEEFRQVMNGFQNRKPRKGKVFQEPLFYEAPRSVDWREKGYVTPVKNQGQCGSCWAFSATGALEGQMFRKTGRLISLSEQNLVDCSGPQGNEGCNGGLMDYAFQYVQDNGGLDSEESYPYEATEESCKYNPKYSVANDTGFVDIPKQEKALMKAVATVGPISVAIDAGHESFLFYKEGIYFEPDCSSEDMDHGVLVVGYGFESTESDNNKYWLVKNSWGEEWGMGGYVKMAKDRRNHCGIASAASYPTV
- MEASUREMENT_PROTOCOL: Inhibitory constant against human cathepsin L using Z-Phe-Arg-AMC substrate
- CONDITION_SET: read-out: Ki app
PARAMETER_MEASURED: Ki (µM)

[
  {
    "MOL_SMILES": "CN1CCN(S(=O)(=O)c2ccc(C(=O)NC3(C(=O)NCC#N)CCCCC3)cc2)CC1",
    "Ki [µM]": 71
  },
  {
    "MOL_SMILES": "C#Cc1ccc(C(=O)NC2(C(=O)NCC#N)CCCCC2)cc1",
    "Ki [µM]": 18
  },
  {
    "MOL_SMILES": "N#CCNC(=O)C1(NC(=O)c2ccc(N3CCOCC3)cc2)CCCCC1",
    "Ki [µM]": 50
  },
  {
    "MOL_SMILES": "N#CCNC(=O)C1(NC(=O)c2ccc(Br)cc2)CCCCC1",
    "Ki [µM]": 17
  },
  {
    "MOL_SMILES": "N#CCNC(=O)C1(NC(=O)c2ccc(N)cc2)CCCCC1",
    "Ki [µM]": 45
  }
]

a = CC[C@H](C)[C@H](NC(=O)OCc1ccccc1)C(=O)NCC#N
b = CN1CCC(Oc2ccc(-c3ccc(C(=O)NC4(C(=O)NCC#N)CCCCC4)cc3)cc2)CC1
Between a and b , which one shows the smaller Ki number? Give the chosen item's label as your response.
b
